biological target: HSC70 (Homo sapiens); construct: made in house; experiment: Competition ELISA: soluble peptide vs HSC70 binding to immobilized 1097-L; details: read-out: Kd from competition curves, HSC70
Sequence (P11142 whole entry): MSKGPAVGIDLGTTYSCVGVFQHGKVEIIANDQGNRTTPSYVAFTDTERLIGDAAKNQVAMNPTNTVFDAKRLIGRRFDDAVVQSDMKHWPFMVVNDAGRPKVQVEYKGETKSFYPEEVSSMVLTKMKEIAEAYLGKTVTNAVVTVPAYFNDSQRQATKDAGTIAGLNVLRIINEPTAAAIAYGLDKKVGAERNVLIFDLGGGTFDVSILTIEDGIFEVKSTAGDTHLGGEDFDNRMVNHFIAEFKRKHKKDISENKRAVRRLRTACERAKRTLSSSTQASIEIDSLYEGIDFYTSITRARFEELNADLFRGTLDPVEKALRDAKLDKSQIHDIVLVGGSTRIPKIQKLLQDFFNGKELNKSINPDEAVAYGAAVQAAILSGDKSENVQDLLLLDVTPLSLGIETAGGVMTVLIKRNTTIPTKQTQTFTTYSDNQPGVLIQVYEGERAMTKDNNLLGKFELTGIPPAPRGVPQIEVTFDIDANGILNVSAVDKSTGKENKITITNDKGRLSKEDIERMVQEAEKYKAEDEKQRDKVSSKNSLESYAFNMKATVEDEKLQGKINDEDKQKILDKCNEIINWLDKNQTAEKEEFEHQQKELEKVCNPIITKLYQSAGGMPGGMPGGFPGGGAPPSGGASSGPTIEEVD
Ends that are not written are not given here.

Chain	Endpoint Unit	Kd
FLYLSTLRWFQMRIE [Peptide 1097-L]	nM	602
NWFLYLSTL [Peptide 1092-S]	nM	1260
QKVFIFSGTF [Peptide 1295-S]	nM	1260

---

target: DJA2 (Homo sapiens, UniProt O60884); construct: made in house; test: Competition ELISA: soluble peptide vs DJA2 binding to immobilized 1097-L
Sequence (O60884 whole entry): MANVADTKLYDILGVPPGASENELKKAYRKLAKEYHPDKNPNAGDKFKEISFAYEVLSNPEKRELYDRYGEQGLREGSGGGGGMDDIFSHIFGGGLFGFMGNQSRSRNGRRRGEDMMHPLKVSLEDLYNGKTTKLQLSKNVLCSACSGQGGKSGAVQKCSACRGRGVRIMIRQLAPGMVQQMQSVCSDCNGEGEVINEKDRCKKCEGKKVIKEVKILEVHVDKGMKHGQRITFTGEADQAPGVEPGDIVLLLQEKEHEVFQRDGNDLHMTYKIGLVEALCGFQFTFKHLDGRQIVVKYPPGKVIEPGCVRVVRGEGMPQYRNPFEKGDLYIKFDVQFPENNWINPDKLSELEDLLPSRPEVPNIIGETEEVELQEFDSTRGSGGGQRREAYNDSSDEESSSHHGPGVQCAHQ
Ends that are not written are not given here.

Chain	Kd
NWFLYLSTL [Peptide 1092-S]	2.63 µM

Where do these numbers come from? They come from paper PMC7060200.
